- tested on: HLA-A*24 (human)
- assay info: UV-exchange ELISA, exchange yield grade
readout: peptide exchange yield

Report peptide exchange yield for VYALKVRTI [… (SEQ ID NO: 145)]
50 to 75%

Report peptide exchange yield for TYADIGGLDNQI [… (SEQ ID NO: 361)]
50 to 75%

Report peptide exchange yield for NYITGKGDVF [… (SEQ ID NO: 169)]
50 to 75%

Report peptide exchange yield for EYQEIFQQL [… (SEQ ID NO: 283)]
50 to 75%

Report peptide exchange yield for VYVPFGGKSMITF [… (SEQ ID NO: 153)]
> 75%

Report peptide exchange yield for YFIKSPPSQLF [… (SEQ ID NO: 259)]
20 to 49%

Report peptide exchange yield for SYGTVSQIF [… (SEQ ID NO: 148)]
> 75%

Report peptide exchange yield for NYLVDPVTI [… (SEQ ID NO: 282)]
50 to 75%

Report peptide exchange yield for IYGEKLQFIF [… (SEQ ID NO: 273)]
50 to 75%

Report peptide exchange yield for AYAANVHYL [… (SEQ ID NO: 187)]
> 75%

Report peptide exchange yield for SFTKTSPNF [… (SEQ ID NO: 247)]
50 to 75%

Report peptide exchange yield for VFDTSIAQLF [… (SEQ ID NO: 317)]
50 to 75%

Report peptide exchange yield for FYINGQYQF [… (SEQ ID NO: 176)]
50 to 75%

Report peptide exchange yield for SYLNEAFSF [… (SEQ ID NO: 265)]
> 75%

Report peptide exchange yield for VYEAMVPLF [… (SEQ ID NO: 135)]
> 75%

Report peptide exchange yield for KYLNENQLSQL [… (SEQ ID NO: 364)]
50 to 75%
